Tested on: CP291
Experimental protocol: qHTS profiling for inhibitors of Plasmodium falciparum proliferation (AID 504749);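 note: 0% = DMSO vehicle and full inhibition = artemisinin control; nearly all actives have a fitted effect of over 60% in size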
Condition details: P. falciparum in erythrocytes, SYBR Green DNA, 72 h; series mostly up to 12.8 µM
Inconclusive results are not listed. Calls of active or inactive are those of the source. Calls come from the whole dose curve; as a rule, active = well fitted inhibition curve with a large enough effect; inconclusive = small, poorly fitted or top-dose-only effect; inactive = flat fitted curve, though single readings scatter.
Could you please pick one outcome from this set? Yes (active), No (inactive)

# Compound, Cat
measured = [
    ("O=C(NC[C@@H](O)CO)c1c(I)c(C(=O)NC[C@@H](O)CO)c(I)c(N(CCO)C(=O)CO)c1I", "No"),
    ("CC(=O)[C@]1(O)CCC2C3C=C(Cl)C4=CC(=O)C5CC5[C@@]4(C)C3CC[C@]21C (stereo partly drawn)", "No"),
    ("C[C@]12C=CC(=O)C=C1CCC1C2C(O)C[C@]2(C)C1CC[C@]2(O)C(=O)CO (stereo partly drawn)", "No"),
    ("CN[C@H]1[C@H](O)[C@@H](O[C@@H]2[C@H](O)[C@@H](O[C@H]3OC(CN)=CC[C@H]3N)[C@@H](N)C[C@H]2N)OC[C@@]1(C)O", "No"),
    ("CC(=C(CCOP(=O)(O)O)SC(=O)c1ccccc1)N(C=O)Cc1cnc(C)nc1N", "No"),
    ("CC1(C)OC2CC(=O)OC[C@@]23C1CC(=O)[C@]1(C)C3CC[C@@]2(C)C(c3ccoc3)OC(=O)C3O[C@@]321 (stereo partly drawn)", "No"),
    ("CCC(C)C(=O)OC1CCC=C2C=CC(C)C(CCC3CC(O)CC(=O)O3)[C@@H]21 (stereo partly drawn)", "No"),
    ("C=Cc1c(C)c2cc3nc(cc4[nH]c(cc5nc(cc1[nH]2)C(C)=C5CCC(=O)O)c(CCC(=O)OC)c4C)[C@@]1(C)C3=CC=C(C(=O)OC)[C@H]1C(=O)OC (tested in a mixture with another compound)", "No"),
    ("CC(C)C1CCC(C(=O)NC(Cc2ccccc2)C(=O)O)CC1 (stereo not drawn)", "No"),
    ("CC(C)(C)NC[C@H](O)COc1cccc2c1C[C@@H](O)[C@@H](O)C2", "No"),
]

Prompt line: Record lookup: outcome of this test for CN(C)CCCOC1C(C(O)CO)OC2OC(C)(C)O[C@@H]21 (stereo partly drawn) ?
Response line: No

Prompt line: Record lookup: outcome of this test for CC1C2CCC3C4CC=C5CC(N(C)C)CC[C@@]5(C)C4CC[C@@]32CN1C (stereo partly drawn) ?
Response line: No

Prompt line: Record lookup: outcome of this test for CCO[C@H]1O[C@@H]([C@H](COCc2ccccc2)OCc2ccccc2)[C@@H](OCc2ccccc2)[C@H]1O ?
Response line: No

Prompt line: Record lookup: outcome of this test for COc1ccc(OC)c([C@H](O)CNC(=O)CN)c1 ?
Response line: No

Prompt line: Record lookup: outcome of this test for C[C@H](C(=O)O)c1cccc(Oc2ccccc2)c1 ?
Response line: No

* * *

System: Rap guanine nucleotide exchange factor 3 (Homo sapiens) (UniProt O95398)
Sequence (O95398 whole entry, looked up): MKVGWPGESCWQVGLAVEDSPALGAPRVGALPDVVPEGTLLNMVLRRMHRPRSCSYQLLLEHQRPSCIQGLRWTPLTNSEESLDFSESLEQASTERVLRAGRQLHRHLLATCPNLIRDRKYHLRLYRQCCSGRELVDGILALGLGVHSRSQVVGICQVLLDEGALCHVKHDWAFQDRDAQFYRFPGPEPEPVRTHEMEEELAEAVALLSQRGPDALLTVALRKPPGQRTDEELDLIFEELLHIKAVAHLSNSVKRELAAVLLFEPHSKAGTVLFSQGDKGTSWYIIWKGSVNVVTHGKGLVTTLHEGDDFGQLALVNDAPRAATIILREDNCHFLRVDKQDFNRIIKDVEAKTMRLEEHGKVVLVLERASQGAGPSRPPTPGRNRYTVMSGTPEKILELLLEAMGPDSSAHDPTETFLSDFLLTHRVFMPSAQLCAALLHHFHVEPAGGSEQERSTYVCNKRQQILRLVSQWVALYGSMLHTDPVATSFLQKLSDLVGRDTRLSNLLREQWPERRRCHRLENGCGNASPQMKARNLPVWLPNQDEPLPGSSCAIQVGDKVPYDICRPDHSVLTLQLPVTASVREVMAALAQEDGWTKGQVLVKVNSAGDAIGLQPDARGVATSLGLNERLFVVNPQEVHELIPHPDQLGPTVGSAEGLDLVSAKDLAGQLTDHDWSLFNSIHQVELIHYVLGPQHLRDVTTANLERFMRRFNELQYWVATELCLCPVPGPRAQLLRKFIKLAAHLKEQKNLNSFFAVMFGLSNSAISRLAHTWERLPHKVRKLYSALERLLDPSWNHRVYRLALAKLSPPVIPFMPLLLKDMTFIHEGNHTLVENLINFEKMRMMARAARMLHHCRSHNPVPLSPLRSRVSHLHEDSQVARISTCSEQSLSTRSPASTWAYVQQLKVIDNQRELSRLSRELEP
Experimental protocol: Counterscreen qHTS for antagonist of cAMP-regulated guanine nucleotide exchange factor 3 (EPAC1) (AID 1645888);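 note: fluorescence loss as bound BODIPY-GDP is released from Rap1B; % of control where 0% means no effect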
Condition details: Rap1B-BODIPY-GDP nucleotide exchange, fluorescence; series mostly up to 154 µM
Results filed as inconclusive are left out. Active and inactive are the calls of the source. Calls come from the whole dose curve; as a rule, active = well fitted inhibition curve with a large enough effect; inconclusive = small, poorly fitted or top-dose-only effect; inactive = no such curve, though single readings can be large or run the other way.
Value kind: activity change, negative = inhibition

Previously resolved entries follow.
# Compound, activity change, negative = inhibition
rows = [
    ("CCC(C)N(C(=O)COC(=O)C1CCN(S(=O)(=O)c2ccc(C)c(C)c2)CC1)C1CCS(=O)(=O)C1 (stereo unspecified)", "inactive"),
    ("CC(=O)Oc1c(Sc2ccccc2[N+](=O)[O-])c(C)nn1C(C)(C)C", "inactive"),
    ("Cc1ccc(C)c(-c2ccc(=O)n(Cc3cccc(Br)c3)n2)c1", "inactive"),
    ("Cc1ccc2nc(-c3ccc(NC(=O)c4ccco4)cc3)[nH]c2c1", "-13% [at 30.8 µM] (inactive)"),
    ("CC1(C(=O)NS(=O)(=O)c2ccc(Cl)s2)CCN1C(=O)c1ccc(C2CCCCC2)cc1 (stereo unspecified)", "-3.31% [at 30.8 µM] (inactive)"),
    ("Cc1ccc(NC(=O)Cn2nc(C)c3nn(-c4ccc(Cl)cc4)c(C)c3c2=O)cc1F", "inactive"),
    ("CCOC(=O)C1=C(N)OC2=C(C(=O)CC(C)(C)C2)C1c1ccc(CC)s1 (stereo unspecified)", "inactive"),
    ("O=C(Nc1ccc(F)cc1F)C1CCN(c2ncccn2)CC1", "inactive"),
]

# per-item lookup of activity change, negative = inhibition; items listed below
1. CC(OC(=O)c1nn(C)c(=O)c2ccccc12)C(=O)NC1CCCCC1C (stereo unspecified)
2. Cc1ccc2nc(-c3ccc(Cl)cc3)c(Cc3ccccc3C(F)(F)F)n2c1
3. CCC(C)NC(=O)CS(=O)Cc1nc(-c2ccccc2C)oc1C (stereo unspecified)

Response line:
inactive
0.28% [at 30.8 µM] (inactive)
inactive

# per-item lookup of activity change, negative = inhibition; items listed below
1. CC(=O)C(Sc1nnnn1-c1ccc(O)cc1)c1ccccc1 (stereo unspecified)
2. COC(=O)c1cc2oc(C)cc2n1Cc1ccccc1Cl
3. Cc1[nH]n(-c2ccccc2)c(=O)c1C(c1cc(Cl)ccc1O)c1c(C)[nH]n(-c2ccccc2)c1=O
4. CCC(=O)N1N=C(c2cccs2)CC1c1ccc(OC)cc1 (stereo unspecified)
5. Cc1cc(OC(C)C(=O)NCCc2c[nH]c3ccccc23)c2c(C)cc(=O)oc2c1 (stereo unspecified)

Response line:
["inactive", "inactive", "inactive", "inactive", "inactive"]

The measured values listed here are drawn from PubChem BioAssay (NCATS).
